The following are reported IC50 results, target or system Thymidylate synthase (Escherichia coli, UniProt C3SWJ7).
# output: number + unit

                                 cpd_smiles  test_result
0  CCc1[nH]c2nc(N)nc(O)c2c1Sc1ccc(C(=O)N[C@@H](CCC(=O)O)C(=O)O)cc1      0.54 µM

Continue with the molecule presented below.
## Input Which IC50 value belongs to `CCc1[nH]c2nc(N)nc(O)c2c1Sc1ccc([N+](=O)[O-])cc1` ?
## Output 24 µM
